Assay: in vitro
Details: male, Sprague-Dawley, rat, microsomes, Half-Life

molecule: CCCCCCCCCCCCCCCC(=O)NCCOC(=O)CCC(=O)OCC(O)CO (stereo not shown)
half-life at 1 μM: < 10 min

---

Assay: in vitro
Conditions: male, Beagle, dog, s9, CLint (mL/min/mg protein)
measured.attribute: microsomal CLint at 1 μM (µL/min/mg)

compound: CCCCCCCCCCCCCCCC(=O)NCCOC(=O)CCC(=O)OC[C@H]1O[C@@](CO)(O[C@H]2O[C@H](CO)[C@@H](O)[C@H](O)[C@H]2O)[C@@H](O)[C@@H]1O
limit.operator: =
observed: 452
//
compound: CCCCCCCCCCCCCCCC(=O)NCCOC(=O)CCC(=O)OCC(O)CO (centres unmarked)
limit.operator: >
observed: 691
//
compound: CCCCCCCCCCCCCCCC(=O)NCCOC(=O)CCC(=O)OCC(COC(=O)CCCCCCC)OC(=O)CCCCCCC (centres unmarked) [Compound I-3, PEA-Succinate-Glycerol-Di-Caprylic]
limit.operator: =
observed: 36.8
//
compound: CC/C=C\C/C=C\C/C=C\C/C=C\C/C=C\CCCC(=O)OCCNC(=O)CCCCCCCCCCCCCCC
limit.operator: =
observed: 26.3
//
compound: CCCCC/C=C\C/C=C\CCCCCCCC(=O)OCCNC(=O)CCCCCCCCCCCCCCC
limit.operator: =
observed: 20.1

---

Assay: in vitro
Details: male, Sprague-Dawley, rat, 0 min, 1 μM
Procedure: The reaction mixture, minus cofactors, was prepared as described below. The test article was added into the reaction mixture at a final concentration of 1 μM. […] Half-lives were calculated using GraphPad software, fitting to single-phase exponential decay equation. Reaction mixture, minus cofactors, was prepared as described below. […] Halflives were calculated using GraphPad software, fitting to a single-phase exponential decay equation. […]
Entries and their measured Concentration (μM) of analyte PEA, 0 min follow.
measured.attribute: Concentration (μM) of analyte PEA, 0 min (µM)

compound: CCCCCCCCCCCCCCCC(=O)NCCOC(=O)CCC(=O)OCC(COC(=O)CCCCCCC)OC(=O)CCCCCCC (stereo not shown) [Compound I-3, PEA-Succinate-Glycerol-Di-Caprylic]
measured.attribute: Concentration (μM) of analyte PEA, 0 min
units.text: µM
observed: 0

compound: CC/C=C\C/C=C\C/C=C\C/C=C\C/C=C\CCCC(=O)OCCNC(=O)CCCCCCCCCCCCCCC [Compound I-5]
measured.attribute: Concentration (μM) of analyte PEA, 0 min
units.text: µM
observed: 0.029

compound: CCCCCCCCCCCCCCCC(=O)NCCOC(=O)CCC(=O)OC[C@H]1O[C@@](CO)(O[C@H]2O[C@H](CO)[C@@H](O)[C@H](O)[C@H]2O)[C@@H](O)[C@@H]1O [Compound I-7]
measured.attribute: Concentration (μM) of analyte PEA, 0 min
units.text: µM
observed: 0.042

compound: CCCCCCCCCCCCCCCC(=O)NCCOC(=O)CCC(=O)OCC(COC(=O)CCC)OC(=O)CCC (stereo not shown) [Compound I-11]
measured.attribute: Concentration (μM) of analyte PEA, 0 min
units.text: µM
observed: 0

---

Below, each entry is listed alongside its reported Concentration (μM) of analyte PEA, 30 min.
Experiment: in vitro
Conditions: male, CD-1, mouse, 30 min, 1 μM
measured.attribute: Concentration (μM) of analyte PEA, 30 min (µM)

compound: CCCCCCCCCCCCCCCC(=O)NCCOC(=O)CCC(=O)OC[C@H]1O[C@@](CO)(O[C@H]2O[C@H](CO)[C@@H](O)[C@H](O)[C@H]2O)[C@@H](O)[C@@H]1O
units.text: µM
observed: 0.084

compound: CCCCCCCCCCCCCCCC(=O)NCCOC(=O)CCC(=O)OCC(COC(=O)CCC)OC(=O)CCC (stereo not shown)
units.text: µM
observed: 0.083

compound: CC/C=C\C/C=C\C/C=C\C/C=C\C/C=C\CCCC(=O)OCCNC(=O)CCCCCCCCCCCCCCC
units.text: µM
observed: 0.029

compound: CCCCCCCCCCCCCCCC(=O)NCCOC(=O)CCC(=O)OCC(COC(=O)CCCCCCC)OC(=O)CCCCCCC (stereo not shown) [Compound I-3, PEA-Succinate-Glycerol-Di-Caprylic]
units.text: µM
observed: 0.023

compound: CCCCCCCCCCCCCCCC(=O)NCCOC(=O)CCC(=O)OCC(O)CO (stereo not shown)
units.text: µM
observed: 0.077

compound: CCCCC/C=C\C/C=C\CCCCCCCC(=O)OCCNC(=O)CCCCCCCCCCCCCCC
units.text: µM
observed: 0.031

compound: CCCCCCCCCCCCCCCC(=O)NCCOC(=O)CCC
units.text: µM
observed: 0.12
